target_of_assay: UniProt:Q9GT49
Sequence (Q9GT49 whole entry): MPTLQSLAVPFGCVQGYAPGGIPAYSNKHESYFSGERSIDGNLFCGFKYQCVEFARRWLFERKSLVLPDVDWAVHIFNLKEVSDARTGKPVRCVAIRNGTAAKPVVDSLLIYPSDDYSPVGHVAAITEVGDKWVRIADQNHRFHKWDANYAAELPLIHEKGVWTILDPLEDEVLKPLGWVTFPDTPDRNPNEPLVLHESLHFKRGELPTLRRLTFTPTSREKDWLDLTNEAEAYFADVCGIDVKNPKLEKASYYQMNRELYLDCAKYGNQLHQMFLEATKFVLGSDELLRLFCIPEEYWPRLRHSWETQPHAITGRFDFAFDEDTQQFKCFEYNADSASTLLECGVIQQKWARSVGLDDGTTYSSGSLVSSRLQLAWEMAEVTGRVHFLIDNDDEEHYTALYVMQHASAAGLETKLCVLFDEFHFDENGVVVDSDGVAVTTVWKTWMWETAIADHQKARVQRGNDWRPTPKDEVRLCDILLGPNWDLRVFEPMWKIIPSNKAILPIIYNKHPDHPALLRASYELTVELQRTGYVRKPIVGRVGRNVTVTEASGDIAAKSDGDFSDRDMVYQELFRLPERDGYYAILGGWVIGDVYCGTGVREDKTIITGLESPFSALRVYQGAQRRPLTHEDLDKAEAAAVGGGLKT
assay_comment: biochemical
Type: biochemical
condition_set: read-out: TcTryS Activity ± 2σn-1 (%)
Lab note - cut at 90% for remaining activity at 30 µM: T if strictly below, F if not.

Criterion: remaining activity at 30 µM strictly below 90%. Is it met by COc1ccc(C2C(C(=O)c3ccc4c(c3)OCCO4)=C(O)C(=O)N2c2nc3ccc(C)cc3s2)cc1 (stereo not drawn) [AD81] ?
F

I wonder whether COc1cc(CNCCCCCCCCNCc2ccc(OCc3ccccc3)c(OC)c2)ccc1OCc1ccccc1 [APC1-111] has remaining activity at 30 µM below 90%. Can you tell?
T

hey, is remaining activity at 30 µM for COc1ccc(C(=O)C2=C(O)C(=O)N(c3nc4ccc(Cl)cc4s3)C2c2ccc(F)cc2)cc1OC (stereo not drawn) [ADPKN164] lower than 90% or not?
F

Please state whether remaining activity at 30 µM is below 90% for COc1cc(C2C(C(=O)c3ccc4c(c3)OCCO4)=C(O)C(=O)N2c2nc3ccc(Cl)cc3s2)ccc1O (stereo not drawn) [ADMRC158]
F

Given Cn1c(=O)c2c(nc(N/N=C\c3ccc(O)cc3O)n2CC(O)COc2ccccc2)n(C)c1=O (stereo not drawn) [TC227] , is recorded remaining activity at 30 µM strictly lower than 90%?
F

Regarding COc1cc(CNCCCCNCc2ccc(OCc3ccccc3)c(OC)c2)ccc1OCc1ccccc1 [APC1-89] , kindly confirm whether its remaining activity at 30 µM is beneath 90%.
T

Determine if c1ccc(COc2ccc(CNCCCCNCc3ccc(OCc4ccccc4)cc3)cc2)cc1 [APC1-87] shows remaining activity at 30 µM strictly lower than 90%.
T

Does the reported remaining activity at 30 µM of the following molecule sit strictly below 90%? CC(C)(C)NC(=O)Nc1nc2nc(N)ncc2cc1-c1ccc2ccccc2c1 [ZEA10]
T

Please determine if CCNC(=S)Nc1nc2nc(NCCCN3CCOCC3)ncc2cc1-c1cc(OC)cc(OC)c1 [ZVR159] is below 90% in terms of remaining activity at 30 µM.
F

Does the reported remaining activity at 30 µM of the following molecule sit strictly below 90%? c1ccc(COc2ccc(CNCCCCCCNCc3ccc(OCc4ccccc4)cc3)cc2)cc1 [APC1-99]
T

remaining activity at 30 µM strictly < 90% for this molecule? COc1ccc(C2C(C(=O)c3ccc4c(c3)OCCO4)=C(O)C(=O)N2c2nc3ccc(OC)cc3s2)cc1 (stereo not drawn) [ADPKN160]
F

Lab log: compare recorded remaining activity at 30 µM with 90%; is it strictly lower for [O-][n+]1onc2cc(F)ccc21 [Compound J31] ?
F

Threshold test, remaining activity at 30 µM < 90%: COc1cc(CNCCCCCCNCc2ccc(OCc3ccccc3)c(OC)c2)ccc1OCc1ccccc1 [APC1-101]
T

Determine whether this molecule shows remaining activity at 30 µM lower than 90% (ties excluded): COc1ccc(C2C(C(=O)c3ccc4c(c3)OCCO4)=C(O)C(=O)N2c2nc3ccccc3s2)cc1 (stereo not drawn) [ADPKN165]
F

is_below(remaining activity at 30 µM, 90%) for Brc1ccc(CNCCCCCCCCCCCCNCc2ccc(Br)cc2)cc1 [EAP1-63] ?
T

hey, is remaining activity at 30 µM for COc1ccc(C2C(C(=O)c3ccc4c(c3)OCCO4)=C(O)C(=O)N2c2nc3ccc(Cl)cc3s2)cc1 (stereo not drawn) [AD84] lower than 90% or not?
F
